- measurement-target: Nuclear factor erythroid 2-related factor 2 (Homo sapiens, UniProt Q16236)
- Sequence (Q16236 whole entry): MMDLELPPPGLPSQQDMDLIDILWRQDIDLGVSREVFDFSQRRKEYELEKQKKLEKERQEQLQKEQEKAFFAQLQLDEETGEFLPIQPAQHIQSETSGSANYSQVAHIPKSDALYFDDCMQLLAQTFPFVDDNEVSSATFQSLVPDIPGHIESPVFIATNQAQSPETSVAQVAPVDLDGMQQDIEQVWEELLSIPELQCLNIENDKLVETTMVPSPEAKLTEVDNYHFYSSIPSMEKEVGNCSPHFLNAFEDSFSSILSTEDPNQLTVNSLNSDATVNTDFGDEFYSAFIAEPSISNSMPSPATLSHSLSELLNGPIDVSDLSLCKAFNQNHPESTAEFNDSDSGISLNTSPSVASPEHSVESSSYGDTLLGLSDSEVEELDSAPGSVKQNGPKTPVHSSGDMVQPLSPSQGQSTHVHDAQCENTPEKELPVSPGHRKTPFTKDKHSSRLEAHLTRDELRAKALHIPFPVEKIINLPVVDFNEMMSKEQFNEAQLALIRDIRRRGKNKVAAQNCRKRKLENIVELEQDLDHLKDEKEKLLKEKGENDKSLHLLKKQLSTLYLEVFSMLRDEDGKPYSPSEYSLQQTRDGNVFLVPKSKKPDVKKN
- protocol-details: Activation of Nrf2 in human U2OS cells co-expressing Keap1 assessed as induction of Nrf2 nuclear translocation incubated for 6 hrs by PathHunter chemiluminescence based analysis
Hi there, I'd appreciate the recorded pEC50 for every entry that follows.
One number for each entry, as −log10 of the molar value.

Known results for compounds:
chemical-structure: COc1ccc(S(=O)(=O)/C=C/c2ccccc2Cl)nc1
measurement-target: Nuclear factor erythroid 2-related factor 2 (Homo sapiens, UniProt Q16236)
quantitative-readout: 6.89
//
chemical-structure: COc1ccnc(S(=O)(=O)/C=C/c2ncccc2C(F)(F)F)c1
measurement-target: Nuclear factor erythroid 2-related factor 2 (Homo sapiens, UniProt Q16236)
quantitative-readout: 6.76
//
chemical-structure: COc1cccnc1/C=C/S(=O)(=O)c1ncccc1OC
measurement-target: Nuclear factor erythroid 2-related factor 2 (Homo sapiens, UniProt Q16236)
quantitative-readout: 5.73
//
chemical-structure: COc1ccnc(S(=O)(=O)/C=C/c2ccnc(Cl)c2)c1
measurement-target: Nuclear factor erythroid 2-related factor 2 (Homo sapiens, UniProt Q16236)
quantitative-readout: 6.40
//
chemical-structure: COc1cccnc1S(=O)(=O)/C=C/c1ncccc1C(F)(F)F
measurement-target: Nuclear factor erythroid 2-related factor 2 (Homo sapiens, UniProt Q16236)
quantitative-readout: 6.97
//
chemical-structure: COc1ncccc1S(=O)(=O)/C=C/c1ncccc1C(F)(F)F
measurement-target: Nuclear factor erythroid 2-related factor 2 (Homo sapiens, UniProt Q16236)
quantitative-readout: 6.67
//
chemical-structure: COc1ncccc1S(=O)(=O)/C=C/c1ccccc1C(F)(F)F
measurement-target: Nuclear factor erythroid 2-related factor 2 (Homo sapiens, UniProt Q16236)
quantitative-readout: 6.13

Next:
Recorded pEC50 for "COc1ccc(S(=O)(=O)/C=C/c2ccccc2C(F)(F)F)nc1" , please?
6.61
